Taken from patent US4460781A.

In this section, each of the compounds is paired with its reported ED100.
system: mice; test: Footshock (blocking of shock-elicited fighting in pairs of mice); format: in vivo; conditions: Mus musculus, pretreated 1 hour, 3 out of 3 pairs blocked from fighting, maximum of 100 mg/kg, read-out: Footshock (100% blocking dose)
endpoint.label: ED100

| input.smiles | meas.value |
| --- | --- |
| OCCn1cc2c(n1)CN=C(c1ccccc1)c1cc(Cl)ccc1-2 | 100 mg/kg |
| Clc1ccc2c(c1)C(c1ccccc1Cl)=NCc1n[nH]cc1-2 | 25 mg/kg |
| CNC(=O)n1cc2c(n1)CN=C(c1ccccc1)c1cc(Cl)ccc1-2 | 25 mg/kg |
| Fc1ccccc1C1=NCc2n[nH]cc2-c2ccc(Cl)cc21 | 25 mg/kg |

----------
In this section, each of the compounds is paired with its reported minimal effective dose.
test system: Cats; experiment: Unanesthetized Cat (minimum symptoms, usually ataxia); assay type: in vivo; details: Felis catus, po, cats treated orally

| input.smiles | minimal effective dose / mg/kg |
| --- | --- |
| OCCn1cc2c(n1)CN=C(c1ccccc1)c1cc(Cl)ccc1-2 | 20 |
| Fc1ccccc1C1=NCc2n[nH]cc2-c2ccc(Cl)cc21 | 2 |
| Cc1[nH]nc2c1-c1ccc([N+](=O)[O-])cc1C(c1ccccc1Cl)=NC2 | 250 |
| Clc1ccc2c(c1)C(c1ccccc1Cl)=NCc1n[nH]cc1-2 | 10 |
| CNC(=O)n1cc2c(n1)CN=C(c1ccccc1)c1cc(Cl)ccc1-2 | 20 |
